molecules and their reported TGI
System: A498 renal
PROTOCOL_NOTES: NCI tumour cell line growth inhibition, 48 h

Would you mind telling me what TGI value was observed for CS(=O)(=O)c1ccc2nc(-c3ccc(O)cc3)sc2c1 ?
31.2 µM

Would you mind telling me what TGI value was observed for O=C1Nc2ccccc2/C1=C\c1nc(-c2ccccc2F)n2ccccc12 ?
11 µM

Would you mind telling me what TGI value was observed for CCCCCCCCCCCCCCCC(=O)OCCOCCOCCOCCOCCOC(=O)CCCCCCCCCCCCCCC ?
> 100 µM

Would you mind telling me what TGI value was observed for O=C(COc1ccccc1)N(C(=O)N1CCN(c2ccccc2)CC1)S(=O)(=O)c1ccccc1 ?
> 100 µM

Would you mind telling me what TGI value was observed for COc1ccc(N2C(=O)/C(=C\c3ccccc3)SC2c2cc(OC)c(OC)c(OC)c2)cc1 (stereo not given) ?
> 100 µM

====

Tested on: SN12C renal
PROTOCOL_NOTES: NCI tumour cell line growth inhibition, 48 h
molecules and their reported GI50

# annotated cases, reported GI50 shown
1) CN(C)Cc1ccc(NC(=O)c2cncc(C#Cc3cnc(N)c4ncccc34)c2)cc1F; 1.92 µM
2) COc1cc2c3c(n(CCCNCCCNCCN)c(=O)c2cc1OC)-c1cc2c(cc1C3=O)OCO2; 19.8 µM
3) COc1ccc(S(=O)(=O)Nc2c(/C=C\c3cc(OC)c(OC)c(OC)c3)ccc(OC)c2O)cc1; 0.0869 µM
4) CCCCCCCCCCCCN=C(N)c1ccc(N2CCN(c3ccc(C(N)=NCCCCCCCCCCCC)cc3)CC2)cc1; 8.99 µM
5) O=C1NC2(CCCCC2)C(=O)N1CCN(CCCl)CCCl; > 25 µM
6) COc1ccc(C2C(C#N)=C(N)Oc3c2sc2c(Br)cccc32)cc1 (configuration not stated); 4 µM

Would you mind telling me what GI50 value was observed for O=C(/C=C/c1ccccn1)c1ccc(OCc2nnc(-c3ccc(Cl)cc3)o2)cc1 ?
2.41 µM

Would you mind telling me what GI50 value was observed for CCOC(=O)c1c(C)nc2c(c1N)/C(=C/c1ccccn1)C(=O)N2Cc1ccccc1 ?
1.15 µM

Would you mind telling me what GI50 value was observed for Oc1[nH]c2ccccc2c1/C=c1/ccc2c(c1)N=C(c1ccc(C(F)(F)F)cc1)N=2 ?
6.91 µM

Would you mind telling me what GI50 value was observed for O=C(Nc1cc(Cl)ccc1O)c1cccc(Nc2ccnc(C(F)(F)F)c2)c1 ?
3.36 µM

Would you mind telling me what GI50 value was observed for Cc1ccc(Cl)c(NS(=O)(=O)c2ccc(-c3cnc(C4CC4)o3)cc2)c1 ?
0.415 µM

Would you mind telling me what GI50 value was observed for C[N+](C)(C)c1cc[c]([Sn]([c]2ccc([N+](C)(C)C)cc2)([c]2ccc([N+](C)(C)C)cc2)[c]2ccc([N+](C)(C)C)cc2)cc1 ?
> 100 µM

Would you mind telling me what GI50 value was observed for O=C(NCCOCCOCCOCCNC(=O)c1cc2c(o1)C(=O)c1ccccc1C2=O)NC12CC3CC(CC(C3)C1)C2 ?
1.34 µM

Would you mind telling me what GI50 value was observed for N=C(N)c1ccc(-c2ccc(-c3ccc4ccccc4c3)s2)s1 ?
1.87 µM

Would you mind telling me what GI50 value was observed for COc1ccc(-c2cn(-c3ccc(OC)c(OC)c3)c(=O)[nH]2)cc1 ?
> 100 µM

Would you mind telling me what GI50 value was observed for C=C1C(=O)O[C@H]2[C@H]1CC/C(COC(=O)/C=C\C(=O)NCc1ccc(Cn3c(=O)sn(CCI)c3=O)cc1)=C\CC[C@@]1(C)O[C@@H]21 ?
3.15 µM

Would you mind telling me what GI50 value was observed for CC(=O)/C(Br)=C/c1ccc(Br)o1 ?
8.11 µM
